Biological target: TPP riboswitch RNA
Test: Isothermal titration calorimetry (ITC), ligand titrated into RNA
Assay type: binding
Details: ITC; fragment 2 analogs, quinoxaline core modifications, Table 2A; read-out: Kd
observable: Kd (µM)
The figure you give is taken to be in µM; do not add the unit.

Which Kd value is on record for Nc1ccc2nccnc2c1 ? 25

###

Target: TPP riboswitch RNA
Assay: Isothermal titration calorimetry (ITC), ligand titrated into RNA
Type: binding
Conditions: ITC; read-out: Kd (affinity)
observable: pKd
Kindly note that pKd refers to -log10 of the concentration in mol/L and answer with the value alone.

Which pKd value is on record for c1cc(N2CCCCC2)c(NCc2ccc3nccnc3c2)cn1 ? 6.20

###

Target: TPP riboswitch RNA
Test: Isothermal titration calorimetry (ITC), ligand titrated into RNA
Format: binding
Settings: ITC; fragment 5 analogs, pendant groups, Table 4; read-out: Kd
Each entry below carries its reported Kd.
The figure you give is taken to be in µM; do not add the unit.

* COC(=O)c1ccc(Cl)c(Cl)c1 [compound 811] | 820
* NS(=O)(=O)c1ccc(Cl)cc1 [compound 816] | 1300
* OCc1ccc(Cl)cc1 [compound 814] | 1300
* CCOC(=O)c1ccc(Cl)cc1 [compound 813] | 600

We next turn to a different molecule, shown below.
Which Kd value is on record for COC(=O)c1ccc(Br)cc1 [compound 85] ? 440

Where do these numbers come from? They come from patent US20220289688A1.
